- method: yeast display, Sf9 membrane polyspecificity reagent, FACS + sequencing; frameworks hold sequencing errors
measured_quantity: polyreactivity (PSR sort gate)

residues: QVQLVESGGGLVQAGGSLRLSCAASGRIFSTYVMGWYRQAPGKERELVAAITRGGSTNYADSVKGRFTISRDNAKNTVYLQMNSLKPEDTAVYYCNAQRRGTYYWGQATQVTVSS
polyreactivity (PSR sort gate): high polyreactivity

residues: QVQLVESGGGLVHAGGSLRLSCAASGRIFYVYAMGWYRQAPGKEREFVASISWSGGSTYYADSVKGRFTISRDNAKNTVYLQMNSLKPEDTAVYYCAARVVRYGYKYYYWGQCTQVTVSS
polyreactivity (PSR sort gate): low polyreactivity

residues: QVQLVESGGGLVQAGGSLRLSCAASGRIFAGYAMGWYRQAPGKERELVAAISSGGGSTYYADSVKGRFTISRDNAKNTVYLQMNSLKPEDTAVYYCARDSYPHGRARFDYWGQGTQVTVSS
polyreactivity (PSR sort gate): high polyreactivity

residues: QVQLVESGGGLVQAGGSLRLSCAASGRTFYWNTMGWYRQAPGKERELVAAINYSGGSTYYADSVKGRFTISRDNAKNTVYLQMNSLKPEDTAVYYCAAYFHGYKSLHRARSEYNYWGQGTQVNVSS
polyreactivity (PSR sort gate): high polyreactivity

residues: QVQLVESGGRLVQAGGSLRLSCAASGRTFYHNAMGWYRQAPGKERELVAVITWSGGSTYYADSVKGRFTISRDNAKNTVYLQMNSLKPEDTAVYYCATRRYGYERILYNYWGQGTQVTVSS
polyreactivity (PSR sort gate): high polyreactivity

residues: QVQLVESGGGLVQAGGSLRLSCAASGFIFRYYAMGWYRQAPGKERELVAAISSRGGSTYYADSVKGRFTISRDNAKNTVYLQMNSLKPEDTAVYYCAKRGFYTDRDYWGQGTQVTVSS
polyreactivity (PSR sort gate): high polyreactivity

residues: QVHLVESGGGLVQAGGSLRLSCAASGRTIAAYAMGWYRQAPGKERELVAAISRSGGSTYYADSVKGRFTISRDNAKNTVYLQMNSLKPEDTAVYYCAAQRQYGKFDYWGQGTQVTVSS
polyreactivity (PSR sort gate): high polyreactivity

residues: QVQLVESGGGLVQAGGSLRLSCAASGSTFSRNAMGWYRQAPGKERELVAAISWRGGRTYYADSVKGRFTISRDNAKNTVYLQMNSLKPEDTAVYYCAAEHKYRYDYWGQGTQVTVSS
polyreactivity (PSR sort gate): low polyreactivity

residues: QVQLVESGGGLVQAGGSLRLSCAASGSIFTDYAMGWYRQAPGKERELVAAITSSGGSTYYADSVKGRFTISRDNAKNTVYLQMNSLKPEDTAVYYCDADRITIYDYWGQGTQVTVSS
polyreactivity (PSR sort gate): low polyreactivity

residues: QVQLVESGGGLVQAGGSLRLSCAASGSTFGYNAMGWYRQAPGKERELVAGISSGGSTNYADSVKGRFTISRDNAKNTVYLQMNSLKPEDTAVYYCNVDERQFSTVYPYRQFDYWGQVTQVTVSS
polyreactivity (PSR sort gate): low polyreactivity

Prompt line: Endpoint output: polyreactivity (PSR sort gate) of QVQIVESGGGLVQEGGSLRISCAASGFTFTANAMGWYRQAPGKERELVAAITRNGGRTYYADSVKGRFTISRDNAKNTVYFQMNSLKPEDTAVYYCAKPTSQRIHDDYDYWGQGTQVTVSS . Value?
Response line: high polyreactivity

Prompt line: Endpoint output: polyreactivity (PSR sort gate) of QVQLHESVGGLVQAGVSLRLSCEASGTNFTARFIGWYRQAPGKERELVATITDGCYTNHADSVNGRFTISRDNAKNTVYLTMNSLKPEVAAVYYCAAGDVDNDTLMYWGQGSQVTVSS . Value?
Response line: low polyreactivity

###

- method: yeast display, Sf9 membrane polyspecificity reagent, FACS + sequencing; frameworks hold sequencing errors

residues: QVQLVESGGGLVQAGGSLRLSCAASGFIFRWYAMGWSRQAPGKERELVAAISRSGDSTYYADSVKGRFTISRDNAKNTVYLQMNSLKPEDSAVYYCAADDRYYTYGYDYWGQGTQVTVSS
polyreactivity (PSR sort gate): low polyreactivity
//
residues: QVQLVESGGGLVQAGGSLRLSCAASGSIFTGNTMGWYRQAPGNERELVAAMSRRGGRTYYADSVKGRFTISRDNAKNTVYLQMNSLKPEDPAVYYCAADGWYWTYIVEYWGQGTQVTVSS
polyreactivity (PSR sort gate): high polyreactivity
//
residues: QVQLQESGGGLVQAGGSLRLSCAASGYISYFVGMAWYRQAPGKEREFVASIADGSNTYYADSVKGRFTISRDNAKNTVYLQRNSLKPEDTAVFYCAVEDSWTYRFDYWGQGTLVTVSS
polyreactivity (PSR sort gate): high polyreactivity
//
residues: QVQLVESGGGLVQAGGSLRLSCAASGFIFQDYALGWYRKAPGKERELVAAITQSSGSTYYADSVKGRFTISRDNAKNTVYLQMNSLKPEDTAVYYCNTAYDFSRQASYDYWGQGTQVTVSS
polyreactivity (PSR sort gate): low polyreactivity

###

- method: yeast display, Sf9 membrane polyspecificity reagent, FACS + sequencing; frameworks hold sequencing errors

residues: QVQLVESGGGLVQAGGSLRLSCAASGIIFRWYVMGWYRQSPGKERELVAAITNGGRTYYADSVKGRFTISRDNAKNTVYLQMNSLKPEDTEVYYCAAYFRRKMDYWGQGTQVTVSS
polyreactivity (PSR sort gate): high polyreactivity

residues: QVQLVESGGGLVQAGGSLSISCASSGRNFGANAMGLYRQAPGKERELVAVITGGGGTYYADSVKGRFTISRDNAKNTVYLQMNSLKPEDTAVYYCDWPRYYYTYPSHPMDYWGQGTQVTVSS
polyreactivity (PSR sort gate): low polyreactivity

residues: QVQLVESGGGLVQAGGSLRLSCAASGRIFLFYAMGWYRQGPGKERALVAAINWSGTRTYYADSVKGRFTISRDNAKNSVYLHMNSLKPEDTAVYDCNVDTSVYDFSEYDYWGQGTQVTVSS
polyreactivity (PSR sort gate): high polyreactivity

residues: QVQLVESGGGLVQAGGSLRLSCAASGLTFRVNAMGWYRQAPGKERELVAVISTDGGTTYYADSVKGRFTISRDNAKNTVYLQINSLKPEDTAVYYCAAKYAQVYIWVRQIHFDYWGQGTQVTVSS
polyreactivity (PSR sort gate): low polyreactivity

###

- method: yeast display, Sf9 membrane polyspecificity reagent, FACS + sequencing; frameworks hold sequencing errors
measured_quantity: polyreactivity (PSR sort gate)

residues: QVQLVESGGGLVQAGGSLRLSCAASGRIFKRNTMGWYRQAPGKERELVAAITYSGITYYADSVKGRFTISRDNAKNTVYLQMNSLKPEDTAVYYCAKVLYPIGSPRFEYWGQGTQVTVSS
polyreactivity (PSR sort gate): low polyreactivity
--
residues: QVQLVESGGGLVHAGGSIRLSCSASGRTVGVNMGWYRQSPGKERELVAVISSGDSTNYADSVKGRFTISRDNAKNTFYLQMNSLKQEDTAVYYCNAYGSDRLTLDDYWGQGTQVTVSS
polyreactivity (PSR sort gate): low polyreactivity
--
residues: QVQLVESGGGLVQAGGSLRLSCAASGSIFTVNAMGWYRPAPAKERELVATISDTGGSTYADSVKGRFTISRYNAKNTVYLQMNSLKPEDTAVYYCNADYYVRRYPPYDYWGQGTQVTVSS
polyreactivity (PSR sort gate): low polyreactivity
--
residues: QVQLVESGGGLVQAGGSLRLSWAASGSFFKRNAMGSYRQAPGKEREFVAAITYNGGSTYYADSVKGRFTISRDNAMTTVYLQMNSLKPEDTAVYDCNNLYSRAQFRGGDYWAQGTQVTVSS
polyreactivity (PSR sort gate): high polyreactivity
--
residues: QVQLVESGGGLVQAGGSLRLSCDASGSTFWFNDMGWYRQAPGKERELVAAIDWSDGSTYYADSVKGRFTISRDNAKNTVYLQMNSLKPEDTAVYFCAADHRYSARRSVPTLYDYWGQGTQVTVSS
polyreactivity (PSR sort gate): low polyreactivity

Then there is this sequence:
Prompt line: Endpoint output: polyreactivity (PSR sort gate) of QVQLVESGGGLVQAGGSLRLSCAASGFTFRRNAMGWYRQAPGKERELVAVITSSARTNYADSVKGRFTISRDNAKNTVYLQMNSLKPEDTAVYYCNAYRYRQSSSDKYGYWGQGTQVTVSS . Value?
Response line: high polyreactivity

###

- method: yeast display, Sf9 membrane polyspecificity reagent, FACS + sequencing; frameworks hold sequencing errors
measured_quantity: polyreactivity (PSR sort gate)

Solved cases below.
residues: QVQLVESGGGLVQAGGSLRLSSAASGIIFTYYAMGWYRQAPGKERELVAAISSGGGSTYYADSVKGRFTISRDNAKNTVYLQMNSLKPEDTAVYYCNADYYFVYTYLHDYWGQGTQVTVSS
reported_result: low polyreactivity
--
residues: QVQLVEAGGGLVQAGGSLRLSGAASGYTFGGNAMGWYRPAPGKERELVAGITWTGGTTYYADSVKGRFTISRDNAKNTVYLQMNSLKPEETAVYYCNASLDSQDGDYWGQGTQVTVSS
reported_result: low polyreactivity
--
residues: QVQLVESGGGLVQAGGSLRLSCAASGSTFLSNAMGWYRQAPGKERELVAAITIGGSTNYADSVKGRFTISRDNAKNTVYLQMNSLKPEDTAFYFCAADWYYDYAELTRDYDYWGQGTQVTVSS
reported_result: low polyreactivity
--
residues: QVQLVESGGGLVQAGGSLRLSCAASGSIFAGNAMGWYRQAPGKERELVAAITFSAGRTSYADSVKGRFTISRDNAKNTVYLQMNSLKPEDTAVYYCAARYRTDYYPEYDYWGQGTQVTVSS
reported_result: low polyreactivity
--
residues: QVQLVESGGGLVQAGGSLRLSCAASGSIFWFNAMGWYRQAPGKERELVAAINSSGGRTYYADSVKGRFTISRDNAKNTVYLQMNSLKPEDTAVYYCNALLWGNPASYGYWGQGTQVTVSS
reported_result: high polyreactivity
--
residues: QVQLVESGGGLVQAGGSLRLSCAASGRTFGRYVMGWYRQAPGKERDLVAAITGVGSTKYADSVKGRFTISRDNAKNTVYLQMNSLKPEDTAVYYCAKRYLYDRRHAEYWAANDYWGQGTQVTVSS
reported_result: low polyreactivity
--
residues: QVQLVESGGGLVQAGGSLRLSCAASGSIFSYNAMGWYRQAPGKERELVAAITWSGGSTYYADSVKGRFTISRDNAKNTVYLQMNSLKPEDTAVYYCAAVYDDYSTSVGYSPEYDYWGQGTQVTESS
reported_result: high polyreactivity
--
residues: QVQLVESGGGLVQAGGSLRLSCAASGFTFGYYAMGWYRQAPGKERELVAAITYDGDITYYADSVKGRFTISRDNAKNTVYLQMNSLKPEDTAVYYCAADTVYRSYYWGQGTQVTVSS
reported_result: low polyreactivity

Prompt line: Endpoint output: polyreactivity (PSR sort gate) of QVQLVESGGGLVQAGGSLRLSCAASGRTFSVNDMGWYRQAPGKERELVAAISFSGGSTYYADSVKGRFTISRDNAKNTVYLQMNSLKPEDTAVYYCASEAYPSWFYVITGFGIYDYWGQGTQVTVSS . Value?
Response line: high polyreactivity

Prompt line: Endpoint output: polyreactivity (PSR sort gate) of QVQLVESGGGLVQAGGSLRLSCAASGNIFVSNVMGWYRQAPGKERELVAAISSGGRTYYADSVKGRFTISRDNAKNTVYLQMNSLKPEDTAVYYCAASYKSKYLGGGEYWGQGTQVTVSS . Value?
Response line: high polyreactivity

Prompt line: Endpoint output: polyreactivity (PSR sort gate) of QVQLVESGGGLVQAGGSLRLICAASGFTFYKNTMGWYRQAPGKERELVAAISSSGSSTYYADSVKGRFTISRDNAKNTVYLQMNSLKPEDTAVYYCAAGRFAYHDDYWGQGTQVTVSS . Value?
Response line: high polyreactivity
